system: Saccharomyces cerevisiae; assay: protein stability index of tFT-peptide fusion in wild type (PSI (0-1 scale)); higher = more stable (slower turnover); details: genetic background: wild type;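 further: PSI derived as read-weighted mean over the 8 sorting bins, only variants exceeding 10 total reads kept, mCherry placed adjacent to the peptide and sfGFP distal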
Measure name: protein stability index

[[record]]
construct_sequence = "KKHKKGQKCKIN"
reported_result = 0.153

[[record]]
construct_sequence = "LKILRQFMNHQN"
reported_result = 0.192

[[record]]
construct_sequence = "RSLRVLEPLYFR"
reported_result = 0.412

[[record]]
construct_sequence = "WITLPMCPLLLR"
reported_result = 0.31

[[record]]
construct_sequence = "KKHKKGQKQKIV"
reported_result = 0.136

[[record]]
construct_sequence = "RLIQPLPVTFLN"
reported_result = 0.0559

[[record]]
construct_sequence = "VTSCGYKFRTNN"
reported_result = 0.214

[[record]]
construct_sequence = "LVVYLSCVACDN"
reported_result = 0.249

[[record]]
construct_sequence = "ARWRVGLLRGAS"
reported_result = 0.652

[[record]]
construct_sequence = "PSLAASFWRVVC"
reported_result = 0.119

